biological target: hPPARδ (Homo sapiens); construct: expressed in transfected cells; test: PPARδ luciferase reporter cell-line assay (Indigo Biosciences); format: cell-based; conditions: Table 6, cellular luciferase activity; read-out: δ EC50
Readout kind: EC50 (µM)
Give just the number in µM; leave the unit off.

COc1ccc(COc2ccc(CNc3cccc(OC(C)(C)C(=O)O)c3)c(OCc3ccc(OC)cc3)c2)cc1	5.6

Here's the next entry for you.
Query string: Entry `COc1ccc(COc2ccc(CNc3cccc(OC(C)(C)C(=O)O)c3)cc2)cc1` : reported EC50 = ?
Result string: 18.3

* * *

The reader will find reported EC50 values listed item by item below.
Biological target: hPPARδ (Homo sapiens)
Construct: expressed in transfected cells
Sequence (Q03181 1-441): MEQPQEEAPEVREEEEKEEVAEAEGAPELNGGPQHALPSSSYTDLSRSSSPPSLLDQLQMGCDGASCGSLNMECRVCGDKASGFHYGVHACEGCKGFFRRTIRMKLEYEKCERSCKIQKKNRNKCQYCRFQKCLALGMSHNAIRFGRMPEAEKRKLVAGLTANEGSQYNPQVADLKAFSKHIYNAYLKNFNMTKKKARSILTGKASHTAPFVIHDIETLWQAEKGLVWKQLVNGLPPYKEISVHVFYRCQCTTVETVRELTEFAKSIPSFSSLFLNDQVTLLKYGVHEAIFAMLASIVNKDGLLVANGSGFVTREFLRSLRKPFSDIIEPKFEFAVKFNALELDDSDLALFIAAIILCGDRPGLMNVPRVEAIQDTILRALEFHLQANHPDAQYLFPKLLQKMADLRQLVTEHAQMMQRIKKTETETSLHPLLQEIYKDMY
Experiment: PPARδ luciferase reporter cell-line assay (Indigo Biosciences)
Assay type: cell-based
Settings: Table 6, cellular luciferase activity; read-out: δ EC50

Cc1cc(CNc2cccc(C(=O)O)c2)ccc1OCc1ccc(F)cc1	> 100 µM
COc1ccc(COc2ccc(CNc3cccc(C(=O)O)c3)cc2)cc1	> 100 µM

Here's the next entry for you.
Query string: Entry `COc1ccc(COc2ccc(CNc3cccc(C(=O)O)c3)c(OCc3ccc(OC)cc3)c2)cc1` : reported EC50 = ?
Result string: > 100 µM
